- tested_on: FKBP12 / FRB ternary complex (Homo sapiens (Human), UniProt P42345+P62942)
- Sequence (P62942 whole entry): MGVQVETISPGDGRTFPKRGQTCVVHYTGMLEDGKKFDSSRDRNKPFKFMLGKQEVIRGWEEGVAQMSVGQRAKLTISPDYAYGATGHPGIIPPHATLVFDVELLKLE
- Sequence (P42345 2012-2144): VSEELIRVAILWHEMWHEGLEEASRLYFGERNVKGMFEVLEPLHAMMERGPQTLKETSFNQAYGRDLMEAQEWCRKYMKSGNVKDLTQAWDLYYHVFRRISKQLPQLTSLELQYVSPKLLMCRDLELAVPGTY
- assay_comment: SPR assay to characterize ternary complex formation with FKBP12 (FRB binding to rapalog-saturated FKBP12)
- condition_summary: FRB dilutions with 100 nM rapalog on immobilized FKBP12
measurement_kind: Kd

CCOC(=O)COC1CCC(CC(C)C2CC(=O)C(C)C=C(C)C(O)C(OC)C(=O)C(C)CC(C)C=CC=CC=C(C)C(OCC3CC3)CC3CCC(C)C(O)(O3)C(=O)C(=O)N3CCCCC3C(=O)O2)CC1OC (stereo not shown) [Compound 50] = 300 to 800 nM
COCCS(=O)(=O)NC1CC2CCC(C)C(O)(O2)C(=O)C(=O)N2CCCCC2C(=O)OC(C(C)CC2CCC(OCCCS(C)(=O)=O)C(OC)C2)CC(=O)C(C)C=C(C)C(O)C(OC)C(=O)C(C)CC(C)C=CC=CC=C1C (mixture of isomers) [Compound 17] = 300 to 800 nM
COCCS(=O)(=O)NC1CC2CCC(C)C(O)(O2)C(=O)C(=O)N2CCCCC2C(=O)OC(C(C)CC2CCC(OCCCO)C(OC)C2)CC(=O)C(C)C=C(C)C(O)C(OC)C(=O)C(C)CC(C)C=CC=CC=C1C (mixture of isomers) [Compound 13] = 300 to 800 nM

Then there is this compound:
Returns the measured Kd for the input compound. Input: CO[C@@H]1C[C@H](C[C@@H](C)[C@@H]2CC(=O)[C@H](C)/C=C(\C)[C@@H](O)[C@@H](OC)C(=O)[C@H](C)C[C@H](C)/C=C/C=C/C=C(\C)[C@@H](OCCC3CCO3)C[C@@H]3CC[C@@H](C)[C@@](O)(O3)C(=O)C(=O)N3CCCC[C@H]3C(=O)O2)CC[C@H]1O (stereo partly shown) [Compound 28]
> 800 nM

* * *

- tested_on: FKBP12 (Homo sapiens (Human), UniProt P62942)
- Sequence (P62942 whole entry): as the sequence (P62942 whole entry) above
- assay_comment: SPR assay to determine binding affinity to FKBP12 (direct binding)
- condition_summary: immobilized biotinylated avi-FKBP12
measurement_kind: Kd

COCCS(=O)(=O)NC1CC2CCC(C)C(O)(O2)C(=O)C(=O)N2CCCCC2C(=O)OC(C(C)CC2CCC(O)C(OC)C2)CC(=O)C(C)C=C(C)C(O)C(OC)C(=O)C(C)CC(C)C=CC=CC=C1C (mixture of isomers) [Compound 24] = < 0.3 nM
COCCS(=O)(=O)NC1CC2CCC(C)C(O)(O2)C(=O)C(=O)N2CCCCC2C(=O)OC(C(C)CC2CCC(OCCCO)C(OC)C2)CC(=O)C(C)C=C(C)C(O)C(OC)C(=O)C(C)CC(C)C=CC=CC=C1C (mixture of isomers) [Compound 13] = < 0.3 nM
COCCOCCOCCOC1CC2CCC(C)C(O)(O2)C(=O)C(=O)N2CCCCC2C(=O)OC(C(C)CC2CCC(OCCCS(C)(=O)=O)C(OC)C2)CC(=O)C(C)C=C(C)C(O)C(OC)C(=O)C(C)CC(C)C=CC=CC=C1C (mixture of isomers) [Compound 66] = 0.3 to 1 nM
CO[C@@H]1C[C@H](C[C@@H](C)[C@@H]2CC(=O)[C@H](C)/C=C(\C)[C@@H](O)[C@@H](OC)C(=O)[C@H](C)C[C@H](C)/C=C/C=C/C=C(\C)[C@H](NS(=O)(=O)CC3CCCCC3)C[C@@H]3CC[C@@H](C)[C@@](O)(O3)C(=O)C(=O)N3CCCC[C@H]3C(=O)O2)CC[C@H]1O [Compound 19] = 0.3 to 1 nM
COCCOCCOCCS(=O)(=O)N[C@H]1C[C@@H]2CC[C@@H](C)[C@@](O)(O2)C(=O)C(=O)N2CCCC[C@H]2C(=O)O[C@H]([C@H](C)C[C@@H]2CC[C@@H](O)[C@H](OC)C2)CC(=O)[C@H](C)/C=C(\C)[C@@H](O)[C@@H](OC)C(=O)[C@H](C)C[C@H](C)/C=C/C=C/C=C/1C [Compound 25] = < 0.3 nM
CO[C@@H]1C[C@H](C[C@@H](C)[C@@H]2CC(=O)[C@H](C)/C=C(\C)[C@@H](O)[C@@H](OC)C(=O)[C@H](C)C[C@H](C)/C=C/C=C/C=C(\C)[C@H](NS(=O)(=O)CC3CCCC3)C[C@@H]3CC[C@@H](C)[C@@](O)(O3)C(=O)C(=O)N3CCCC[C@H]3C(=O)O2)CC[C@H]1O [Compound 22] = < 0.3 nM
CCOC(=O)COC1CCC(CC(C)C2CC(=O)C(C)C=C(C)C(O)C(OC)C(=O)C(C)CC(C)C=CC=CC=C(C)C(OC3CC3)CC3CCC(C)C(O)(O3)C(=O)C(=O)N3CCCCC3C(=O)O2)CC1OC (centres unmarked) [Compound 48] = > 1 nM

Then there is this compound:
Returns the measured Kd for the input compound. Input: COC1CC(CC(C)C2CC(=O)C(C)C=C(C)C(O)C(OC)C(=O)C(C)CC(C)C=CC=CC=C(C)C(OCC3CCC3)CC3CCC(C)C(O)(O3)C(=O)C(=O)N3CCCCC3C(=O)O2)CCC1OCCCO (centres unmarked) [Compound 44]
> 1 nM
